Target: human KDR (human, UniProt P35968 20-1356)
Sequence (P35968 20-1356): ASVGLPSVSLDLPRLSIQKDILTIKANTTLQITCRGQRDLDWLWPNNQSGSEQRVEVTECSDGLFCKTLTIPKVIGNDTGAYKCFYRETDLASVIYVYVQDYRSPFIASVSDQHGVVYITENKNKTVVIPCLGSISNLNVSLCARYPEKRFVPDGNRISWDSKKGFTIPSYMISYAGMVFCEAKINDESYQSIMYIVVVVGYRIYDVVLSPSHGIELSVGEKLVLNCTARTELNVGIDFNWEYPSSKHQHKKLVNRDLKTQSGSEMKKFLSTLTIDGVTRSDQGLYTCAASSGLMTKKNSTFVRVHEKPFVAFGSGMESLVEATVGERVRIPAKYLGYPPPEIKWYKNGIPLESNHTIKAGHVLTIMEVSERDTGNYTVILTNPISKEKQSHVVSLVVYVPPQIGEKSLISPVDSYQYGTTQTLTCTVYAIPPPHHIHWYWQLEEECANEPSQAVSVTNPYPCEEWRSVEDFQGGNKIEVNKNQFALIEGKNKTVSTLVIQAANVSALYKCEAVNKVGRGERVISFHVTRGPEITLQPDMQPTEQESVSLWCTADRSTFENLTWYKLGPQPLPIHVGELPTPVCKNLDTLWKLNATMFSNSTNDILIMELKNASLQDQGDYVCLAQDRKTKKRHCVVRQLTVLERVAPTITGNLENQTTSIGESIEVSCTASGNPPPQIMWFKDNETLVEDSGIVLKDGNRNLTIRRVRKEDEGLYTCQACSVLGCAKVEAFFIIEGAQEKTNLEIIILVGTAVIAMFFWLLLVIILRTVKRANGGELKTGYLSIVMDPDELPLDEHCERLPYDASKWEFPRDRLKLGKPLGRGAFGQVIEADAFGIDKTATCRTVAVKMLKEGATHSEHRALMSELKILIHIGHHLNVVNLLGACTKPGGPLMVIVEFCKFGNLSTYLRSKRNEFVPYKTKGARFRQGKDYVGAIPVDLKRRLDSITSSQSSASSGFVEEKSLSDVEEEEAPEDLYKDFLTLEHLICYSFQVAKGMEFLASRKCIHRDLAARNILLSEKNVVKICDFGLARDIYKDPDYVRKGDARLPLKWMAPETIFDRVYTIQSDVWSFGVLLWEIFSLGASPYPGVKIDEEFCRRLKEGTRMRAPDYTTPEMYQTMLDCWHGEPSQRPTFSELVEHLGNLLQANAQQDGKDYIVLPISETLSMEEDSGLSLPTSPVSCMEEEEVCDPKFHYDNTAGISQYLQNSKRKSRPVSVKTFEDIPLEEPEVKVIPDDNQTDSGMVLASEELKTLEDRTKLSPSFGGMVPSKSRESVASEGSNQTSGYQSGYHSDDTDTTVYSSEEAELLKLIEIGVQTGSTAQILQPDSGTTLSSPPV
Test: cell-based or functional assay
Recorded Endpoint: 6-keto Prostaglandin F1α release, Maximum Inhibition (% Inhibition), N = 1 (200 nM) (%)

INSERT INTO results (binder, observed_result) VALUES
  ('33C3 (antibody, V domains shown, Fully human monoclonal antibody from a XenoMouse hybridoma (IgG2 or IgG4 strain), purified) VH: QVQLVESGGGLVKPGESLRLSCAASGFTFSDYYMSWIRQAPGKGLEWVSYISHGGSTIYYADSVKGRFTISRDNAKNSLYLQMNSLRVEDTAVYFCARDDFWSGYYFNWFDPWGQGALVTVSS VL: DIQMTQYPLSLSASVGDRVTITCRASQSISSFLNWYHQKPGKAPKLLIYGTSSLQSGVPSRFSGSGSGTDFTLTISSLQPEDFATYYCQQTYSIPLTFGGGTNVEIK', 76),
  ('31E11 (antibody, V domains shown, Fully human monoclonal antibody from a XenoMouse hybridoma (IgG2 or IgG4 strain), purified) VH: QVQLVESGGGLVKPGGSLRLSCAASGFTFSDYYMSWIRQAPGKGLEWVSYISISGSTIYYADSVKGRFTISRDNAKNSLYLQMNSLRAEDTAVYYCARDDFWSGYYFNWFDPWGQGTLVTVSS VL: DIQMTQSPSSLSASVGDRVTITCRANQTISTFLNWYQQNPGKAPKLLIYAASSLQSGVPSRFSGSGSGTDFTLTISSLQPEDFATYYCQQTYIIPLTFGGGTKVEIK', 88);
